assayed-system: PAK3 (human) (UniProt O75914)
Sequence (O75914 whole entry, looked up): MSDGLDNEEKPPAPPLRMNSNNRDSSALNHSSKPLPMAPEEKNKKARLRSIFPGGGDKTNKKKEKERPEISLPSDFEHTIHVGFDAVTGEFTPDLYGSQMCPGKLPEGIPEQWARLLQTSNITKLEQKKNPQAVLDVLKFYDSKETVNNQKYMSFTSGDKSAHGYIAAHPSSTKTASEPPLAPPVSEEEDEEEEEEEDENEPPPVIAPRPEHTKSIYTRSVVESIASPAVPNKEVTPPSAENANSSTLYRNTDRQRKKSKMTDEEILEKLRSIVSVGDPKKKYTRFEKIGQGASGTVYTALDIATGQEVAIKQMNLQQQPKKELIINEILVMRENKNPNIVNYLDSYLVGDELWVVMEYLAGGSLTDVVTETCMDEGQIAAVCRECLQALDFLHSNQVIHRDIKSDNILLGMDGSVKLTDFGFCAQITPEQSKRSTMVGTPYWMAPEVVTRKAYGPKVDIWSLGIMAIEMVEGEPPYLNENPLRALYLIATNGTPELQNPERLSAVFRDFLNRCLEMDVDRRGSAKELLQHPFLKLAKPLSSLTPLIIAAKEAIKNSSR
protocol-summary: KINOMEscan competition binding
cond: compound 10.0 µM
For each entry below, report its kinase still bound, per cent of control value.
One number for each entry, in %.

# count of solved cases: 5
line-notation: C=CC(=O)Nc1cccc(Oc2nc(Nc3ccc(N4CCN(C)CC4)cc3OC)ncc2Cl)c1
reported-measurement: 100

line-notation: C=CC(=O)Nc1cc(NC(=O)c2ccc(C)c(NC(=O)c3ccno3)c2)cc(C(F)(F)F)c1
reported-measurement: 100

line-notation: CCN1CCN(Cc2ccc(Nc3ncc4c(n3)N(C)c3ccccc3C(=O)N4C)cc2C(F)(F)F)CC1
reported-measurement: 9.4

line-notation: C=CC(=O)Nc1cccc(Nc2nc(N[C@H]3CC[C@H](N(C)C)CC3)nc3c2ncn3C(C)C)c1
reported-measurement: 100

line-notation: COc1cc(N2CCN(C)CC2)ccc1Nc1nc(N)c(C(=O)c2c(Cl)cccc2Cl)s1
reported-measurement: 94

# batch size: 2; output kinase still bound, per cent of control per entry
1. CCC(=O)N1CCN(c2ccc(-n3c(=O)ccc4cnc5ccc(-c6cnc7ccccc7c6)cc5c43)cc2C(F)(F)F)CC1
2. OCCCNc1cc(-c2ccnc(Nc3cccc(Cl)c3)n2)ccn1

1: 100; 2: 100

----------
Kindly supply the reported kinase still bound, per cent of control values for the records listed here.
assayed-system: DAPK2 (human) (UniProt Q9UIK4)
Sequence (Q9UIK4 whole entry, looked up): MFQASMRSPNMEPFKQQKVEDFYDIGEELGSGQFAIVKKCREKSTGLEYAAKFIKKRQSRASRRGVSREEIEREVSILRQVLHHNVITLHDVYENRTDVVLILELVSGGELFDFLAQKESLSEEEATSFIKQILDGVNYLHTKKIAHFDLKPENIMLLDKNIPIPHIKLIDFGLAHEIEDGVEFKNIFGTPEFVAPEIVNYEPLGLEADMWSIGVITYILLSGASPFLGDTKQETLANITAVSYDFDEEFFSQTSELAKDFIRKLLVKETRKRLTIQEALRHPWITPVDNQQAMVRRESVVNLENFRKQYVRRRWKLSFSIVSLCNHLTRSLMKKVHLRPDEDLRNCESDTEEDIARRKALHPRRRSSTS
protocol-summary: KINOMEscan competition binding
cond: compound 10.0 µM
Numbers only, in %.

Observe how each entry below is paired with its result.
line-notation: N#Cc1c(NC(=O)c2cccc3ccccc23)sc2c1CCCC2
kinase still bound, per cent of control / %: 91
//
line-notation: OCCCNc1cc(-c2ccnc(Nc3cccc(Cl)c3)n2)ccn1
kinase still bound, per cent of control / %: 100
//
line-notation: COc1cc(N2CCN(C)CC2)ccc1Nc1nc(N)c(C(=O)c2c(Cl)cccc2Cl)s1
kinase still bound, per cent of control / %: 86
//
line-notation: C=CC(=O)Nc1cc(NC(=O)c2ccc(C)c(NC(=O)c3ccno3)c2)cc(C(F)(F)F)c1
kinase still bound, per cent of control / %: 97
//
line-notation: CN(C)C/C=C/C(=O)Nc1cccc(Nc2ncc3c(n2)N(C)c2ccccc2C(=O)N3C)c1
kinase still bound, per cent of control / %: 69

// for each compound in input: emit kinase still bound, per cent of control
1. Cc1ccc2nc(NCCN)c3ncc(C)n3c2c1
2. CCN1CCN(Cc2ccc(Nc3ncc4c(n3)N(C)c3ccccc3C(=O)N4C)cc2C(F)(F)F)CC1
3. CCCS(=O)(=O)Nc1ccc(F)c(C(=O)c2c[nH]c3ncc(-c4ccc(Cl)cc4)cc23)c1F
4. Cc1ccc(NC(=O)c2cccc(C(C)(C)C#N)c2)cc1Nc1ccc2ncn(C)c(=O)c2c1
5. O=C(NC1CC1)c1cccc(-c2ccc3c(NC(=O)C4CC4)n[nH]c3c2)c1

65
70
95
100
87

Hi team, please reply with kinase still bound, per cent of control for each item in this list.
1. O=C1Nc2ccc(I)cc2/C1=C/c1cc(Br)c(O)c(Br)c1
2. Cc1cc([C@@H](C)Nc2ccccc2C(=O)O)c2nc(N3CCOCC3)cc(=O)n2c1
3. Cn1c(=O)n(-c2ccc(C(C)(C)C#N)cc2)c2c3cc(-c4cnc5ccccc5c4)ccc3ncc21
4. C[C@@H](Oc1cc(-n2cnc3ccc(CN4CCN(C)CC4)cc32)sc1C(N)=O)c1ccccc1C(F)(F)F
5. CC[C@@H]1C(=O)N(C)c2cnc(Nc3ccc(C(=O)NC4CCN(C)CC4)cc3OC)nc2N1C1CCCC1

1: 1.9; 2: 92; 3: 100; 4: 15; 5: 16

----------
Would you mind telling me the reported kinase still bound, per cent of control of each entry?
assayed-system: FES (human) (UniProt P07332)
Sequence (P07332 whole entry, looked up): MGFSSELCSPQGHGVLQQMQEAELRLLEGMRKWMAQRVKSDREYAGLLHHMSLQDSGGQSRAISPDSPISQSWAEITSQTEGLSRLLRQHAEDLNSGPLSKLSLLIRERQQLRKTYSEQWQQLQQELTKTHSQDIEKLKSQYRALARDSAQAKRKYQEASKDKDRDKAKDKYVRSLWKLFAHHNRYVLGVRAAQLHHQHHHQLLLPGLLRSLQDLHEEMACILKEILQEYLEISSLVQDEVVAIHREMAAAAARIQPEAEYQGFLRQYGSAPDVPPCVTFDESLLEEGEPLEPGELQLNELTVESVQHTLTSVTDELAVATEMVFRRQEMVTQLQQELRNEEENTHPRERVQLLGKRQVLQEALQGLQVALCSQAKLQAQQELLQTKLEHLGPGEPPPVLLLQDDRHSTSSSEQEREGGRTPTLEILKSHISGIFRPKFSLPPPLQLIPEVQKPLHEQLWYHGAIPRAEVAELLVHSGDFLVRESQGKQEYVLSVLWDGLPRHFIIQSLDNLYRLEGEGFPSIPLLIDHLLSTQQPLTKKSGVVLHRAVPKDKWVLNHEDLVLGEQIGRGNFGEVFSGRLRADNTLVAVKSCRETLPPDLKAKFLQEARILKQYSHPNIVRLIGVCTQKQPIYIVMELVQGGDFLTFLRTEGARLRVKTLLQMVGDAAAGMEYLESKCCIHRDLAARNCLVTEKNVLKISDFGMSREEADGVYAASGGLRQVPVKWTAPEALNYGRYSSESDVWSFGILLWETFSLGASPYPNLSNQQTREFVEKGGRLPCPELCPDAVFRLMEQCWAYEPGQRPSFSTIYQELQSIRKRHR
protocol-summary: KINOMEscan competition binding
cond: compound 10.0 µM
Answers are plain numbers, in %.

compound: COc1cc(N2CCN(C)CC2)ccc1Nc1nc(N)c(C(=O)c2c(Cl)cccc2Cl)s1
readout: kinase still bound, per cent of control
reported-measurement: 45
--
compound: COc1cc(C(=O)NC2CCN(C)CC2)ccc1Nc1ncc2c(n1)N(C1CCCC1)C(C)CC(=O)N2C (centres undefined)
readout: kinase still bound, per cent of control
reported-measurement: 100
--
compound: Cn1c(=O)n(-c2ccc(C(C)(C)C#N)cc2)c2c3cc(-c4cnc5ccccc5c4)ccc3ncc21
readout: kinase still bound, per cent of control
reported-measurement: 100
--
compound: Cc1ccc(C(=O)Nc2cccc(C(F)(F)F)c2)cc1Nc1cncc(C(N)=O)c1
readout: kinase still bound, per cent of control
reported-measurement: 100
--
compound: CCCS(=O)(=O)Nc1ccc(F)c(C(=O)c2c[nH]c3ncc(-c4ccc(Cl)cc4)cc23)c1F
readout: kinase still bound, per cent of control
reported-measurement: 41
--
compound: O=C1Nc2ccc(I)cc2/C1=C/c1cc(Br)c(O)c(Br)c1
readout: kinase still bound, per cent of control
reported-measurement: 95

State the recorded kinase still bound, per cent of control for every item in the following list.
1. OCCCNc1cc(-c2ccnc(Nc3cccc(Cl)c3)n2)ccn1
2. C=CC(=O)Nc1cccc(Oc2nc(Nc3ccc(N4CCN(C)CC4)cc3OC)ncc2Cl)c1

1: 100; 2: 11

Tell me its kinase still bound, per cent of control given CN(C)C/C=C/C(=O)Nc1cccc(Nc2ncc3c(n2)N(C)c2ccccc2C(=O)N3C)c1 as the entry.
67

----------
assayed-system: TNIK (human) (UniProt Q9UKE5)
Sequence (Q9UKE5 whole entry, looked up): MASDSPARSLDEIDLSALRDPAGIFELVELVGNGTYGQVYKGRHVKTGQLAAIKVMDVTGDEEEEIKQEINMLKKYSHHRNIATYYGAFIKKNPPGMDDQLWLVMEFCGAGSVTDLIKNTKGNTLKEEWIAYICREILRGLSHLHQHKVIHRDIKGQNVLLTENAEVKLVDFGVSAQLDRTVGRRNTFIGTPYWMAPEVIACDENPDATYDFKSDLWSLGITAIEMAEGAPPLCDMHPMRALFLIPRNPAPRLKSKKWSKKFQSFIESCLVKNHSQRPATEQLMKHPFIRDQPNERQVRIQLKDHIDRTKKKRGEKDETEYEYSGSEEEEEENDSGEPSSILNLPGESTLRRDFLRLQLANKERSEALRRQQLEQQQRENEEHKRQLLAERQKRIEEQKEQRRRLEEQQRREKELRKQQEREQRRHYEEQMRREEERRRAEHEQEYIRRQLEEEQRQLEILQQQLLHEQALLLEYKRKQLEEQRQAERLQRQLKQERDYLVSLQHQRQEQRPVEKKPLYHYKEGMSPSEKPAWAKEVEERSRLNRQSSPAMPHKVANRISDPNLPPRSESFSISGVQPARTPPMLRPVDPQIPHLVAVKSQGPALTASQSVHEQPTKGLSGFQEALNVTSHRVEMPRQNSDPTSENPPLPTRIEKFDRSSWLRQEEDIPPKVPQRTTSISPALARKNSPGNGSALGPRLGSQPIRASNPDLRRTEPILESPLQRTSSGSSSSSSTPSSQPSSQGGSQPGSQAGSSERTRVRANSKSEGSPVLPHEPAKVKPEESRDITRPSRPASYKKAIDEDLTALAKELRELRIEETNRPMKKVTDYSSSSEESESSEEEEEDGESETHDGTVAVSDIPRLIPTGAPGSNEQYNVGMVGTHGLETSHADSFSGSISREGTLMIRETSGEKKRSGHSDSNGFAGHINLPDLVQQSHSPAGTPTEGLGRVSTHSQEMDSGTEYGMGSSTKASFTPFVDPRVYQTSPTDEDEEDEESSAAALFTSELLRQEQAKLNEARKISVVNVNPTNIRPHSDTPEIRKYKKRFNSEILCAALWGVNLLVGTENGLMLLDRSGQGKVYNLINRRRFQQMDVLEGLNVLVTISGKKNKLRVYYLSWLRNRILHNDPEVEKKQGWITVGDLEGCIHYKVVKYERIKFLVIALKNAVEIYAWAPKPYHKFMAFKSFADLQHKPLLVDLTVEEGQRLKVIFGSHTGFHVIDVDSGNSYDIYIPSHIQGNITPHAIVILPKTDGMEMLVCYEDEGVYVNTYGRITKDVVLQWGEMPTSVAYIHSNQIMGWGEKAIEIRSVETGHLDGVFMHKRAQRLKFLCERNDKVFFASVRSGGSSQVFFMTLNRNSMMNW
protocol-summary: KINOMEscan competition binding
cond: compound 10.0 µM
Assign kinase still bound, per cent of control to each entry below.
Answers are plain numbers, in %.

// known answers, use as guide
line-notation: Cc1ccc(C(=O)Nc2cccc(C(F)(F)F)c2)cc1Nc1cncc(C(N)=O)c1
assayed-system: TNIK (human) (UniProt Q9UKE5)
scale-unit: %
kinase still bound, per cent of control: 100
--
line-notation: C=CC(=O)Nc1cccc(Nc2nc(N[C@H]3CC[C@H](N(C)C)CC3)nc3c2ncn3C(C)C)c1
assayed-system: TNIK (human) (UniProt Q9UKE5)
scale-unit: %
kinase still bound, per cent of control: 35
--
line-notation: CC[C@@H]1C(=O)N(C)c2cnc(Nc3ccc(C(=O)NC4CCN(C)CC4)cc3OC)nc2N1C1CCCC1
assayed-system: TNIK (human) (UniProt Q9UKE5)
scale-unit: %
kinase still bound, per cent of control: 100
--
line-notation: C[C@@H](Oc1cc(-n2cnc3ccc(CN4CCN(C)CC4)cc32)sc1C(N)=O)c1ccccc1C(F)(F)F
assayed-system: TNIK (human) (UniProt Q9UKE5)
scale-unit: %
kinase still bound, per cent of control: 78
--
line-notation: Nc1ccc(-c2ccc3ncc4ccc(=O)n(-c5cccc(C(F)(F)F)c5)c4c3c2)cn1
assayed-system: TNIK (human) (UniProt Q9UKE5)
scale-unit: %
kinase still bound, per cent of control: 68

State, for TNIK (human) (UniProt Q9UKE5), measured kinase still bound, per cent of control of the compound listed here: CCCS(=O)(=O)Nc1ccc(F)c(C(=O)c2c[nH]c3ncc(-c4ccc(Cl)cc4)cc23)c1F
15

----------
assayed-system: BMPR1A (human)
protocol-summary: KINOMEscan competition binding
cond: compound 10.0 µM
readout: kinase still bound, per cent of control (%)
One number for each entry, in %.

molecule: Cn1c(=O)n(-c2ccc(C(C)(C)C#N)cc2)c2c3cc(-c4cnc5ccccc5c4)ccc3ncc21
assayed-system: BMPR1A (human)
readout: kinase still bound, per cent of control
reported-measurement: 100
//
molecule: CCN1CCN(Cc2ccc(Nc3ncc4c(n3)N(C)c3ccccc3C(=O)N4C)cc2C(F)(F)F)CC1
assayed-system: BMPR1A (human)
readout: kinase still bound, per cent of control
reported-measurement: 8.2
//
molecule: Cc1ccc2nc(NCCN)c3ncc(C)n3c2c1
assayed-system: BMPR1A (human)
readout: kinase still bound, per cent of control
reported-measurement: 32
//
molecule: COc1cc(N2CCN(C)CC2)ccc1Nc1nc(N)c(C(=O)c2c(Cl)cccc2Cl)s1
assayed-system: BMPR1A (human)
readout: kinase still bound, per cent of control
reported-measurement: 100
//
molecule: CCC(=O)N1CCN(c2ccc(-n3c(=O)ccc4cnc5ccc(-c6cnc7ccccc7c6)cc5c43)cc2C(F)(F)F)CC1
assayed-system: BMPR1A (human)
readout: kinase still bound, per cent of control
reported-measurement: 100

Switching to the query record.
Give me measured kinase still bound, per cent of control, please, for this molecule: COc1cc(C(=O)NC2CCN(C)CC2)ccc1Nc1ncc2c(n1)N(C1CCCC1)C(C)CC(=O)N2C (stereo unspecified)
100

----------
Please go through the items and note down their kinase still bound, per cent of control.
assayed-system: RPS6KA3 KD1 (human) (UniProt P51812)
Sequence (P51812 whole entry, looked up): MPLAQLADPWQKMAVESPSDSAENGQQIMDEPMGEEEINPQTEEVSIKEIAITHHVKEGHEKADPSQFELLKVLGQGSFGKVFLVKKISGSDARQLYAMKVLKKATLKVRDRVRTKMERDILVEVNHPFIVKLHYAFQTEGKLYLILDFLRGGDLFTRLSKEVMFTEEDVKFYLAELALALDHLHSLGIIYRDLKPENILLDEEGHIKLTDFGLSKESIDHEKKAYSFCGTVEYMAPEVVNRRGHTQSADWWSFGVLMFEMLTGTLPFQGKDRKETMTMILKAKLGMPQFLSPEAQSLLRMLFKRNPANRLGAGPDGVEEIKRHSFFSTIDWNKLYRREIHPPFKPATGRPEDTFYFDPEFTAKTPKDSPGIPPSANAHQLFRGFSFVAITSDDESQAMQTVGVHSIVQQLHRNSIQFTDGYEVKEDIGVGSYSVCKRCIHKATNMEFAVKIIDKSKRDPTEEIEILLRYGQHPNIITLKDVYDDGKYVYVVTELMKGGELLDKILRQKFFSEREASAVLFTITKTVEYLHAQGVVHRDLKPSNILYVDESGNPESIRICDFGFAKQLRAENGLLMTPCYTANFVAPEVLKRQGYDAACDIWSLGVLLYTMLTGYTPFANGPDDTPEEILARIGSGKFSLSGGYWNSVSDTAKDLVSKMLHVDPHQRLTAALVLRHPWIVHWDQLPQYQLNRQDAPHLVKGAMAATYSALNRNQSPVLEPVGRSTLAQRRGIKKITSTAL
protocol-summary: KINOMEscan competition binding
cond: compound 10.0 µM
Give bare numbers, in %.

Below are worked cases with known answers.
molecule: CCCS(=O)(=O)Nc1ccc(F)c(C(=O)c2c[nH]c3ncc(-c4ccc(Cl)cc4)cc23)c1F
kinase still bound, per cent of control / %: 76
//
molecule: O=C1Nc2ccc(I)cc2/C1=C/c1cc(Br)c(O)c(Br)c1
kinase still bound, per cent of control / %: 36
//
molecule: C=CC(=O)Nc1cccc(Oc2nc(Nc3ccc(N4CCN(C)CC4)cc3OC)ncc2Cl)c1
kinase still bound, per cent of control / %: 100

# context switch: different molecule, same kinase still bound, per cent of control
Kindly indicate its recorded kinase still bound, per cent of control. Item: COc1cc(C(=O)NC2CCN(C)CC2)ccc1Nc1ncc2c(n1)N(C1CCCC1)C(C)CC(=O)N2C (centres undefined)
100

Reference source for all entries: the kinase profiling compilation of Christmann-Franck et al. (2016)
